assay: NCI Yeast Anticancer Drug Screen. Data for the rad50EPP+ strain (AID 151);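 also: 0% = growth of vehicle-treated control cultures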; details: S. cerevisiae rad50 mutant strain, at 1.2 µM, stronger effect = higher value
Compounds without any hit were thinned out: in the full panel of roughly 79,000, 15% have a hit.
ENDPOINT NAME: growth inhibition (%)
Respond with the bare value in %.

{"COMPOUND": "O=C(Nn1c(-c2ccccc2)nc2ccccc2c1=O)c1ccc(CS)cc1", "growth inhibition (%)": -2}
{"COMPOUND": "COC(=O)C(=O)CC(=O)c1cccc(OC)c1", "growth inhibition (%)": -10}
{"COMPOUND": "CC(C)S(=O)(=O)/C=C\\S(=O)(=O)C(C)C", "growth inhibition (%)": -1}
{"COMPOUND": "Cc1cc(O)c(C(C)C)cc1SC#N", "growth inhibition (%)": -12}
{"COMPOUND": "NC(N)=NC(N)=Nc1ccccc1 (tested in a mixture with another compound)", "growth inhibition (%)": -1}
{"COMPOUND": "c1c[nH]c(CN2CCN(Cc3ncc[nH]3)CC2)n1", "growth inhibition (%)": -3}
{"COMPOUND": "COc1cccc(/C=C2\\S/C(=N/Nc3nc(-c4ccc([N+](=O)[O-])cc4)cs3)NC2=O)c1O", "growth inhibition (%)": 33}
{"COMPOUND": "N#CCC(=O)N/N=C(\\c1ccccc1)C(c1ccccc1)C1(O)C(=O)Nc2c(Cl)ccc(Cl)c21 (stereo not given)", "growth inhibition (%)": 2}
{"COMPOUND": "CCOC(=S)SSSC(=S)OCC", "growth inhibition (%)": 18}
{"COMPOUND": "COc1c2c(c3c(c1CCC(=O)O)OC(C)(C)C=C3)OC(C)(C)C=C2", "growth inhibition (%)": -3}

Task: Please report the recorded growth inhibition for Brc1ccc(B2Nc3ccccc3N2)cc1 .
Result: 10

Task: Please report the recorded growth inhibition for CCN(CC)CCC(=O)Nc1ccc2sc3ccccc3c(=O)c2n1 .
Result: 25

Task: Please report the recorded growth inhibition for O=[N+]([O-])c1ccc(C(c2c[nH]c3ccccc23)c2c[nH]c3ccccc23)cc1 .
Result: 10

Task: Please report the recorded growth inhibition for O=C1c2cccc3cccc(c23)C(=O)N1CCNCCN1C(=O)c2cccc3cccc(c23)C1=O .
Result: -1

Task: Please report the recorded growth inhibition for O=P(C(=S)Nc1c(Cl)cccc1Cl)(c1ccccc1)c1ccccc1 .
Result: 6

---

Each item that follows carries a reported growth inhibition.
experiment: NCI Yeast Anticancer Drug Screen. Data for the rad50 strain (AID 155);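 also: 0% = growth of vehicle-only cultures of the same strain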; conditions: S. cerevisiae rad50 strain growth inhibition; at 50.0 µM; stronger effect = higher value
This is part of a sample that, as a whole, favours compounds with a hit. Of some 79,000 tested, about 15% had one in any assay.
Respond with the bare value in %.

Completed entries (count: 4):
{"COMPOUND": "O=C(O)CNC(c1ccccc1)(c1ccccc1)c1ccccc1", "ENDPOINT NAME": "growth inhibition", "REPORTED RESULT": 86.3}
{"COMPOUND": "O=C1SS(=O)c2ccccc21 (configuration not stated)", "ENDPOINT NAME": "growth inhibition", "REPORTED RESULT": 34.1}
{"COMPOUND": "COc1ccc2c3c1OC(C)C31CC(=O)CCC1CC2 (configuration not stated)", "ENDPOINT NAME": "growth inhibition", "REPORTED RESULT": 7.25}
{"COMPOUND": "CC(CN(C)C)C(=O)/C=C/c1ccc(Cl)c(Cl)c1 (configuration not stated)", "ENDPOINT NAME": "growth inhibition", "REPORTED RESULT": 99.2}

Task: Please report the recorded growth inhibition for COC(=O)C(Cl)(Cl)N=Nc1c(Cl)cc(Cl)c(C)c1Cl .
Result: 92.5

Task: Please report the recorded growth inhibition for O=C1C(=O)N(c2ccccc2)[C@@]2(c3ccccc3)C(=Nc3ccccc3)OC(c3ccccc3)=C12 .
Result: 21.6

Task: Please report the recorded growth inhibition for CCCCCc1c(CCCC)c(=O)[nH]c2cc(CNCC(OC)OC)ccc12 .
Result: 88.9

---

assay: NCI Yeast Anticancer Drug Screen. Data for the sgs1 mgt1 strain (AID 161);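 also: 0% = growth of cultures given vehicle only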; conditions: S. cerevisiae sgs1 mgt1 strain, at 5.0 µM (retest, dose inferred, filed as 0.5), stronger effect = higher value
About 79,000 compounds went through this panel and 15% of them were active in at least one assay; those are over-represented in the sample as a whole.
Use met when the recorded growth inhibition is no lower than 10%; use not met when it is lower.

{"SMILES STRING": "NC(=S)N1N=C2c3ccccc3CC[C@@H]2[C@@H]1c1ccccc1", "LABEL VALUE": "not met"}
{"SMILES STRING": "Clc1ccc(/C(=C\\c2ccccc2)Cn2ccnc2)cc1", "LABEL VALUE": "met"}
{"SMILES STRING": "O=C(Cc1ccccc1)NNc1nc(NNC(=O)c2ccncc2)nc(Nc2ccc([N+](=O)[O-])cc2)n1", "LABEL VALUE": "not met"}

Now examine the next entry.
Task: For this compound, is measured growth inhibition 10% or higher? O=C1C=C(Br)C(=O)c2ccccc21
Result: met

---

assay: NCI Yeast Anticancer Drug Screen. Data for the mec2-1 strain (AID 157); conditions: S. cerevisiae mec2-1 strain, at 100.0 µM
This is part of a sample that, as a whole, favours compounds with a hit. Of some 79,000 tested, about 15% had one in any assay. Calls of active or inactive are those of the source. No stated cut-off is given here; in the data, active means growth inhibition above about 70%; inactive means the rest.
# valid calls are active, inactive; nothing else

The examples below pair each entry with its known result.
{"COMPOUND": "CCN(CC)CCNc1ccc2nc(C)n3c4ccc(OC)cc4c(=O)c1c23", "LABEL VALUE": "inactive"}
{"COMPOUND": "CCCCCCC=C(C(=O)OCC)C(=O)OCC", "LABEL VALUE": "inactive"}

Task: Give the logged outcome of this assay for the following compound: O=C(c1cc(=O)c2ccc(O)cc2o1)c1ccc(Cl)cc1Cl
Result: active

Task: Give the logged outcome of this assay for the following compound: O=C(Oc1ccc([N+](=O)[O-])cc1)c1ccc([N+](=O)[O-])cc1
Result: inactive

Task: Give the logged outcome of this assay for the following compound: CN(C)CC(CN(C)C)C(=O)/C=C/c1ccc(Cl)cc1Cl
Result: active

Task: Give the logged outcome of this assay for the following compound: CN(C)CCCn1c2c3ccccc3ccc2c2oc(=O)c3ccccc3c21
Result: active

Task: Give the logged outcome of this assay for the following compound: CCC[CH2][Ge]([CH2]CCC)([CH2]CCC)[O]C(=O)C(O)c1ccccc1 (configuration not stated)
Result: active

Task: Give the logged outcome of this assay for the following compound: CCN1CCC(O)(c2ccc(Oc3ccc(C)cc3)cc2)C(C(=O)c2ccc(Oc3ccc(C)cc3)cc2)C1 (configuration not stated)
Result: active

Task: Give the logged outcome of this assay for the following compound: COC(=O)C(Cc1c[nH]c2ccccc12)N1CN(C)c2ccccc2C1=O (configuration not stated)
Result: active

---

experiment: NCI Yeast Anticancer Drug Screen. Data for the rad14 strain (AID 159);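 also: 0% = growth of vehicle-treated control cultures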; conditions: S. cerevisiae rad14 strain growth inhibition; at 11.0 µM; stronger effect = higher value
Compounds without any hit were thinned out: in the full panel of roughly 79,000, 15% have a hit.
ENDPOINT NAME: growth inhibition (%)
Respond with the bare value in %.

Completed entries (count: 4):
{"COMPOUND": "CC(C)C(c1ccccc1)c1ccccc1", "SCALE UNIT": "%", "growth inhibition": 2}
{"COMPOUND": "O=C1CCC(Cc2ccccc2)CN1 (stereo not drawn)", "SCALE UNIT": "%", "growth inhibition": -2}
{"COMPOUND": "Nc1ccc(N=Nc2ccc(-c3ccc(O)cc3)cc2)c2ccc(S(=O)(=O)O)cc12", "SCALE UNIT": "%", "growth inhibition": 4}
{"COMPOUND": "C/C(=N\\OCC(O)CNCCSCc1ccccc1)c1ccccc1Cl (stereo not drawn)", "SCALE UNIT": "%", "growth inhibition": 85}

Task: Please report the recorded growth inhibition for O=C(O)C(=Cc1ccc(-c2ccccc2)cc1)C(=O)O .
Result: 17

Task: Please report the recorded growth inhibition for COc1cc(C2C3=C(COC3=O)Oc3cc4c(cc32)OCO4)cc(OC)c1O (stereo not drawn) .
Result: 16

Task: Please report the recorded growth inhibition for COC1/C=C\C=C(/C)C(=O)NC2=CC(=O)C(=O)C(=C2O)CC(C)CC(OC)C(O)C(C)/C=C(\C)C1OC(N)=O (stereo not drawn) .
Result: 91

Task: Please report the recorded growth inhibition for CCCNC(=O)OCc1c(COC(=O)NCCC)c(-c2ccc(Cl)c(Cl)c2)n2c1CCC2 .
Result: 0

---

assay: NCI Yeast Anticancer Drug Screen. Data for the rad18 strain (AID 177); settings: S. cerevisiae rad18 mutant growth inhibition; at 1.2 µM; stronger effect = higher value
The panel holds about 79,000 compounds, 15% with a hit somewhere; the sample as a whole holds those more often.
Each item that follows carries a reported growth inhibition.
Respond with the bare value in %.

{"COMPOUND": "NC(=O)NC1C(c2ccccc2)=C1c1ccccc1", "SCALE UNIT": "%", "growth inhibition": -7}
{"COMPOUND": "CNC(=O)OCc1c2ccncc2c(C)c2c1[nH]c1ccccc12", "SCALE UNIT": "%", "growth inhibition": 89}

Task: Please report the recorded growth inhibition for COc1ccc(-c2cc(-c3cc(C)cc(Cl)c3O)nc3[nH]c(=S)[nH]c(=S)c23)cc1 .
Result: 0

Task: Please report the recorded growth inhibition for CCN(CC)CCCNc1ccc([N+](=O)[O-])c2nc3ccc(OC)cc3c(NCCCN(CC)CC)c12 .
Result: 0

Task: Please report the recorded growth inhibition for O=C(C(Cl)=C(N1CCCCC1)N1CCCCC1)C(Cl)Cl .
Result: -2

Task: Please report the recorded growth inhibition for CCCCCCCCN1COCC(COc2ccccc2C)OC1 (stereo not drawn) .
Result: -15

Task: Please report the recorded growth inhibition for O=[N+]([O-])c1cn[n+]([O-])c2ccccc12 .
Result: 92

Task: Please report the recorded growth inhibition for Cc1cc(Cl)ccc1NC(=O)/C(Cl)=C(/Cl)C(=O)O .
Result: -2

Task: Please report the recorded growth inhibition for Cc1ccccc1NC(=O)c1c(C)oc2c1C(=O)c1ccccc1C2=O .
Result: -23

Task: Please report the recorded growth inhibition for CCCCCCCCCCCNC=O .
Result: -22

Task: Please report the recorded growth inhibition for CC(C)=CCc1c2c(c(O)c3c(=O)c(-c4ccc(O)c(O)c4)coc13)C=CC(C)(C)O2 .
Result: -24

Task: Please report the recorded growth inhibition for CN(C)CCNc1ccc2ncn3c4ccc(O)cc4c(=O)c1c23 .
Result: -23

Cited source for all entries: PubChem BioAssay (NCI)
